All values here come from patent US20090311237A1.

measurement_notes: Phase 1 Stage 1 clinical pharmacokinetics of SC ZA co-administered with rHuPH20
Format: in vivo, human
condition_details: human, serum, sc, […], AUC (0-48 h), Subj 77; ZA […] SC; inf […]; PH20 6000 U

chemical_smiles: O=P(O)(O)C(O)(Cn1ccnc1)P(=O)(O)O
AUC(0-t) (ng·h/mL): 618

---

measurement_notes: Phase 1 Stage 1 clinical pharmacokinetics of SC ZA co-administered with rHuPH20
Assay type: in vivo, human
condition_details: human, serum, sc, ZA 5 mg SC + 24000 U rHuPH20; median, n=3

chemical_smiles: O=P(O)(O)C(O)(Cn1ccnc1)P(=O)(O)O
CL/F [mL/min/kg]: 1.85

---

measurement_notes: Pharmacokinetics of ZA in pig serum after IV or SC infusion with or without rHuPH20 (LC-MS-MS, non-compartmental analysis)
Format: in vivo
condition_details: female, Yorkshire, pig, serum, intravenous, […], animal ID 67, Study Group 1, IV 20 min infusion, ZA […], rHuPH20 0 U/mL, time 3 h; read-out: Zoledronic Acid Serum Concentration

chemical_smiles: O=P(O)(O)C(O)(Cn1ccnc1)P(=O)(O)O
concentration at 3 h (ng/mL): 6.67

---

measurement_notes: Phase 1 Stage 1 clinical pharmacokinetics of SC ZA co-administered with rHuPH20
Type: in vivo, human
condition_details: human, serum, sc, 0.0877 mg/kg, AUC (0-48 h), Subj 46; ZA 0.0877 mg/kg SC; inf 0.276 hr; PH20 12000 U

chemical_smiles: O=P(O)(O)C(O)(Cn1ccnc1)P(=O)(O)O
AUC(0-t), ng·h/mL: 706

---

measurement_notes: Phase 1 Stage 1 clinical pharmacokinetics of SC ZA co-administered with rHuPH20
Format: in vivo, human
condition_details: human, serum, sc, serum; ZA 2 mg SC infusion + 24000 Units rHuPH20; 1 h post infusion; n=3; read-out: Mean Conc.

chemical_smiles: O=P(O)(O)C(O)(Cn1ccnc1)P(=O)(O)O
readout_units: ng/mL
concentration at 1 h: 56.5

---

measurement_notes: Pharmacokinetics of ZA in pig serum after IV or SC infusion with or without rHuPH20 (LC-MS-MS, non-compartmental analysis)
Format: in vivo
condition_details: female, Yorkshire, pig, serum, iv, […], pig; ZA […] 20-min IV infusion; n=3; read-out: CL, median (converted)
Method: A pharmacokinetic study of zoledronic acid (ZA) co-administered with rHuPH20 in female Yorkshire swines was conducted. […] Serum concentration of ZA was determined using a qualified LC-MS-MS assay after derivatization with diazomethane (Zhu, L S et al. (2006) Rapid Commun. Mass Spectrom. 20: 3421-3426; “Qualification Data of An LC-MS/MS Method for the Determination of Zoledronate in Porcine Serum”, MDS Pharma Services Study No. AA43671-01, Report Date 14 Sep. 2007). […]
assay_metric: clearance (mL/min/kg)

chemical_smiles: O=P(O)(O)C(O)(Cn1ccnc1)P(=O)(O)O
assay_metric: clearance
readout_units: mL/min/kg
test_value: 7.36

---

measurement_notes: Phase 1 Stage 1 clinical pharmacokinetics of SC ZA co-administered with rHuPH20
Type: in vivo, human
condition_details: human, serum, sc, ZA 1 mg SC + 24000 U rHuPH20; individual subjects; read-out: MRT

chemical_smiles: O=P(O)(O)C(O)(Cn1ccnc1)P(=O)(O)O
MRT / h: 6.93
